Experiment: Human pregnane X receptor (PXR) small molecule agonists, qHTS cell viability counter screen (AID 1346977); further: nearly all actives have a fitted effect of over 50% in size
Settings: PXR-Luc HepG2 viability, CellTiter-Fluor, 24 h; series mostly up to 92.4 µM
Records with an inconclusive call do not appear. Activity calls are given as the source filed them. The call rests on the fitted dose curve; in most records, active means well fitted cell-killing curve with a large enough effect in the repeat runs; inconclusive means weak or mixed curves, or effect the other way; inactive means flat fitted curve, though single readings scatter.
Possible outcomes: T for active, F for inactive

- Compound: "CCOC=C(C(=O)OCC)C(=O)OCC"
  Classification: "F"
- Compound: "CC(C)(C)C1=CC(=O)C(C(C)(C)C)=CC1=O"
  Classification: "F"
- Compound: "CCOC(=O)OC(=O)OCC"
  Classification: "F"
- Compound: "CN1CC[C@H](c2c(O)cc(O)c3c(=O)cc(-c4ccccc4Cl)oc23)[C@H](O)C1"
  Classification: "T"
- Compound: "CCc1cccc(C)c1N(C(=O)C(=O)O)C(C)COC (stereo not drawn)"
  Classification: "F"
- Compound: "CCOC(=O)[C@H](O)[C@@H](O)C(=O)OCC"
  Classification: "F"
- Compound: "CO[Si](OC)(c1ccccc1)c1ccccc1"
  Classification: "F"
- Compound: "O=S(=O)(c1ccc(OCc2ccccc2)cc1)c1ccccc1O"
  Classification: "T"
- Compound: "C/C=C/C(=O)C1=C(C)C=CCC1(C)C"
  Classification: "F"
- Compound: "Cc1ccc2n[nH]nc2c1"
  Classification: "F"
- Compound: "Oc1ccc2c(c1)CCC2"
  Classification: "F"
- Compound: "CCN(CC)c1ccc(N=Nc2ccccc2)cc1"
  Classification: "T"
- Compound: "CN(C)CCOc1ccc(/C(=C(/CCCl)c2ccccc2)c2ccccc2)cc1"
  Classification: "T"

* * *

Test: qHTS assay for small molecule agonists of the p53 signaling pathway (AID 651631); further: nearly all actives have a fitted effect of over 15% in size
Conditions: HCT-116 p53RE-bla reporter, beta-lactamase FRET ratio, 16 h; series mostly up to 73.3 µM
Results filed as inconclusive are left out. Activity calls are given as the source filed them. Calls follow the shape of the full dose curve.
Outcome codes: 1 = active, 0 = inactive

- Molecule: "CC(CNC(=O)c1cccnc1)NC(=O)c1cccnc1 (stereo not given)"
  Classification: 0
- Molecule: "CCOC(=O)COc1ccc2c(=O)cc(-c3ccccc3)oc2c1"
  Classification: 0
- Molecule: "CO/N=C(\\C(=O)N[C@@H]1C(=O)N2C(C(=O)O)=C(CSc3cnns3)CS[C@H]12)c1csc(N)n1"
  Classification: 0
- Molecule: "CSCC[C@H](NC(=O)[C@H](Cc1ccc(OS(=O)(=O)O)cc1)NC(=O)[C@@H](N)CC(=O)O)C(=O)NCC(=O)N[C@@H](Cc1c[nH]c2ccccc12)C(=O)N[C@@H](CCSC)C(=O)N[C@@H](CC(=O)O)C(=O)N[C@@H](Cc1ccccc1)C(N)=O"
  Classification: 0
- Molecule: "CN(Cc1ccccc1)Cc1ccccc1"
  Classification: 0
- Molecule: "Nc1nc(/C(=C/CC(=O)O)C(=O)N[C@@H]2C(=O)N3C(C(=O)O)=CCS[C@H]23)cs1"
  Classification: 0
- Molecule: "C/C=C/C1=C(C(=O)O)N2C(=O)[C@@H](NC(=O)[C@H](N)c3ccc(O)cc3)[C@H]2SC1"
  Classification: 0
- Molecule: "CO/N=C(\\C(=O)N[C@@H]1C(=O)N2C(C(=O)O)=C(COC(C)=O)CS[C@H]12)c1csc(N)n1 (stereo in doubt)"
  Classification: 0
- Molecule: "CCCCCCOC(=O)c1cccnc1"
  Classification: 0
- Molecule: "CCOc1ccc(NC(=S)Nc2ccc(OCC)cc2)cc1"
  Classification: 0
- Molecule: "CCN(CC)CCNC(=O)c1ccc(NS(C)(=O)=O)cc1"
  Classification: 0
- Molecule: "O=C1c2ccccc2C(=O)C1c1ccc(F)cc1"
  Classification: 0
- Molecule: "CCc1ncnc2cc(OC)c(OC)cc12"
  Classification: 0
- Molecule: "CN1[C@@H](CC(=O)c2ccccc2)CCC[C@H]1C[C@H](O)c1ccccc1"
  Classification: 0
- Molecule: "CO/N=C(\\C(=O)N[C@@H]1C(=O)N2C(C(=O)[O-])=C(C[n+]3ccc(N)n3CCO)CS[C@H]12)c1csc(N)n1"
  Classification: 0
- Molecule: "O=C(O)/C=C/C(O)c1ccc(Cl)cc1 (stereo not given)"
  Classification: 0
- Molecule: "O=S(=O)(O)CC(S)CS (stereo not given)"
  Classification: 0
- Molecule: "Cc1cn([C@H]2C[C@H](O)[C@@H](CO)O2)c(=O)[nH]c1=O"
  Classification: 0
- Molecule: "C[C@]12O[C@H](C[C@]1(O)CO)n1c3ccccc3c3c4c(c5c6ccccc6n2c5c31)CNC4=O"
  Classification: 1
- Molecule: "O=C1c2ccccc2CN2C(=O)c3ccccc3CN12"
  Classification: 0

* * *

Molecular target: Cytochrome P450 3A4 (Homo sapiens) (UniProt P08684)
Sequence (P08684 whole entry, looked up): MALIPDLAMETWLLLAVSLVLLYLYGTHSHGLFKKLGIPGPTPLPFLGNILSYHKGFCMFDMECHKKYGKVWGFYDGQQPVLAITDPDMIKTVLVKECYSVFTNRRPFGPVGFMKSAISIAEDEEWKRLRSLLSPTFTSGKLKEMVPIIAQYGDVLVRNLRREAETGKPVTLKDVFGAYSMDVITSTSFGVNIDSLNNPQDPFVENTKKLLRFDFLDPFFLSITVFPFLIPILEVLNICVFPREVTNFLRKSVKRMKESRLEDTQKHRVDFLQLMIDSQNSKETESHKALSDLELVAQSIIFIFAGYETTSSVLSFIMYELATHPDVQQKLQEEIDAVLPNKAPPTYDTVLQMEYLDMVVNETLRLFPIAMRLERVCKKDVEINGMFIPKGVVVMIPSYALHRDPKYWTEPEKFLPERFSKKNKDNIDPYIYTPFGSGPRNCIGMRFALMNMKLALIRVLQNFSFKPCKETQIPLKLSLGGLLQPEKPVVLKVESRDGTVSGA
Assay: Cytochrome P450 Family 3 Subfamily A Member 4 (CYP3A4) small molecule antagonists: luciferase reporter qHTS assay (AID 1671201); further: nearly all actives have a fitted effect of over 50% in size
Conditions: P450-Glo CYP3A4 enzyme, luciferin luminescence, 1 h; series mostly up to 115 µM
Inconclusive results are not listed. The source made the active and inactive calls. The call rests on the fitted dose curve; in most records, active means well fitted inhibition curve with a large enough effect in the repeat runs; inconclusive means weak or mixed curves; inactive means no such curve, though single readings can be large or run the other way.
Outcomes: 1 (yes) for active, 0 (no) for inactive

- Compound structure string: "CCN(CC)c1ccc(C=O)cc1"
  Classification: "0 (no)"
- Compound structure string: "CN1CCN(c2ccccc2/C=C2\\SCCN(c3ccc(Cl)c(Cl)c3)C2=O)CC1"
  Classification: "1 (yes)"
- Compound structure string: "CCCCCCCCCC[N+](C)(CCCCCCCCCC)CCC[Si](OC)(OC)OC"
  Classification: "1 (yes)"
- Compound structure string: "CCOC(=O)[C@H](C)O"
  Classification: "0 (no)"
- Compound structure string: "Nc1c(Br)cc([N+](=O)[O-])cc1Br"
  Classification: "0 (no)"
- Compound structure string: "Cc1cc(C)c(O)c(C(C)(C)C)c1"
  Classification: "0 (no)"
- Compound structure string: "Clc1cccc(Cl)n1"
  Classification: "0 (no)"
- Compound structure string: "C[C@H]1O[C@@H](O[C@H]2CC[C@@]3(C)[C@H](CC[C@@H]4[C@@H]3C[C@@H](O)[C@]3(C)[C@@H](C5=CC(=O)OC5)CC[C@]43O)C2)C[C@H](O)[C@@H]1O[C@H]1C[C@H](O)[C@H](O[C@H]2C[C@H](O)[C@H](O[C@@H]3O[C@H](CO)[C@@H](O)[C@H](O)[C@H]3O)[C@@H](C)O2)[C@@H](C)O1"
  Classification: "0 (no)"
- Compound structure string: "Oc1ccc2c(c1)CCC2"
  Classification: "0 (no)"
- Compound structure string: "O=c1[nH]cccc1O"
  Classification: "0 (no)"
- Compound structure string: "CCOc1nc(F)cc2nc(S(=O)(=O)Nc3c(Cl)cccc3C(=O)OC)nn12"
  Classification: "1 (yes)"
- Compound structure string: "CCc1cccc(CC)c1"
  Classification: "0 (no)"

* * *

Experiment: A CellTox Green Cytotoxicity Assay to monitor cytotoxicity in HEK293 cells - 40 hour (AID 1224871); further: nearly all actives have a fitted effect of over 45% in size
Settings: CellTox Green fluorescence; series mostly up to 76.8 µM
Records with an inconclusive call do not appear. Activity calls are given as the source filed them. The call rests on the fitted dose curve; in most records, active means well fitted activation curve with a large enough effect in the repeat runs; inconclusive means weak or mixed curves; inactive means flat fitted curve, though single readings scatter.
Outcomes: active, inactive

- Compound: "COc1ccc(OC)c(N=Nc2c(O)ccc3ccccc23)c1"
  Classification: "inactive"
- Compound: "Cc1cc(C)c(O)c(C(C)(C)C)c1"
  Classification: "active"
- Compound: "CCSCC"
  Classification: "inactive"
- Compound: "C=C(C)C1CCC(C)CC1O (configuration not stated)"
  Classification: "inactive"
- Compound: "C=CCc1cc(S(=O)(=O)c2ccc(O)c(CC=C)c2)ccc1O"
  Classification: "inactive"
- Compound: "CC(O)(c1ccc(Cl)cc1)c1ccc(Cl)cc1"
  Classification: "active"
- Compound: "O=C(Nc1ccc([N+](=O)[O-])cc1)Nc1ccc([N+](=O)[O-])cc1 (tested in a mixture with another compound)"
  Classification: "inactive"
- Compound: "c1ccc(-c2ccc(C(c3ccccc3)n3ccnc3)cc2)cc1 (configuration not stated)"
  Classification: "inactive"
- Compound: "C=COCCCC"
  Classification: "inactive"
- Compound: "CCOc1ccc([N+](=O)[O-])cc1"
  Classification: "active"
- Compound: "Oc1ccc2c(c1)CCC2"
  Classification: "inactive"
- Compound: "CN(C[C@@H](CC[N+]12CCC(C3CCCCC3)(CC1)CC2)c1ccc(Cl)c(Cl)c1)C(=O)c1cc(C(F)(F)F)cc(C(F)(F)F)c1"
  Classification: "active"

* * *

Biological target: Cytochrome P450 2C19 (Homo sapiens)
Test: Cytochrome P450 Family 2 Subfamily C Member 19 (CYP2C19) small molecule antagonists: luciferase reporter qHTS assay (AID 1671197); further: nearly all actives have a fitted effect of over 65% in size; further: potency means the concentration at half of the fitted maximal effect
Conditions: P450-Glo CYP2C19 enzyme, luciferin luminescence, 1 h; series mostly up to 115 µM
Results filed as inconclusive are left out. The source made the active and inactive calls. The call rests on the fitted dose curve; in most records, active means well fitted inhibition curve with a large enough effect in the repeat runs; inconclusive means weak or mixed curves; inactive means no such curve, though single readings can be large or run the other way.

- Compound: "[Cl][Sc]([Cl])[Cl]"
  Potency: "inactive"
- Compound: "Cc1ccc2nc(-c3ccc(N)cc3)sc2c1S(=O)(=O)O"
  Potency: "22.1 µM (active)"
- Compound: "Nc1ccc2c(S(=O)(=O)O)cccc2c1S(=O)(=O)O"
  Potency: "inactive"
- Compound: "S=C1NC=NC2N=CNC12 (configuration not stated)"
  Potency: "25.2 µM (active)"
- Compound: "N#Cc1ccc(C/C(=N/NC(=O)Nc2ccc(OC(F)(F)F)cc2)c2cccc(C(F)(F)F)c2)cc1"
  Potency: "12.6 µM (active)"
- Compound: "Nc1ccc(Cl)c([N+](=O)[O-])c1"
  Potency: "inactive"
- Compound: "Cc1ccc(Cl)c(N)c1Cl"
  Potency: "inactive"
- Compound: "CCOc1nc(F)cc2nc(S(=O)(=O)Nc3c(Cl)cccc3C(=O)OC)nn12"
  Potency: "inactive"
- Compound: "CC(O)(c1ccc(Cl)cc1)c1ccc(Cl)cc1"
  Potency: "0.113 µM (active)"
- Compound: "CCOc1ccc([N+](=O)[O-])cc1"
  Potency: "8.09 µM (active)"
- Compound: "C/C(=N\\[Si](C)(C)C)O[Si](C)(C)C"
  Potency: "inactive"
- Compound: "CC(C)(C)C1=CC(=O)C(C(C)(C)C)=CC1=O"
  Potency: "6.92 µM (active)"
- Compound: "CCSCC"
  Potency: "inactive"
- Compound: "ClC(c1ccccc1)(c1ccccc1)c1ccccc1"
  Potency: "0.224 µM (active)"
- Compound: "O=C(Nc1ccccc1)c1cc(Cl)ccc1O"
  Potency: "35.6 µM (active)"
- Compound: "C=C1CC[C@H]2O[C@]2(C)CC[C@@H]2[C@@H]1CC2(C)C"
  Potency: "inactive"
- Compound: "Cc1cc(Br)ccc1NC(=O)CCl"
  Potency: "79.6 µM (active)"
- Compound: "c1ccc2c(c1)-c1ccc3ccc4cccc5cc-2c1c3c45"
  Potency: "inactive"
- Compound: "O=C(c1ccccc1)c1ccc(Cl)cc1"
  Potency: "15.9 µM (active)"
- Compound: "Nc1cc([N+](=O)[O-])cc(Cl)c1O"
  Potency: "79.6 µM (active)"
- Compound: "c1ccc(-c2nc3ccccc3[nH]2)cc1"
  Potency: "35.6 µM (active)"
- Compound: "CCN(CCC#N)c1ccc(N=Nc2ccc([N+](=O)[O-])cc2)cc1"
  Potency: "inactive"
- Compound: "Clc1nc(C(Cl)(Cl)Cl)c(Cl)c(Cl)c1Cl"
  Potency: "31.7 µM (active)"
- Compound: "NCc1ccco1"
  Potency: "inactive"
- Compound: "CCCCCCCCSCc1cc(C)c(O)c(CSCCCCCCCC)c1"
  Potency: "7.1 µM (active)"
- Compound: "CN(C)CCOc1ccc(/C(=C(/CCCl)c2ccccc2)c2ccccc2)cc1"
  Potency: "52.8 µM (active)"
- Compound: "CCC(C)(C)c1ccc(CC(C)CN2C[C@@H](C)O[C@@H](C)C2)cc1 (some centres not stated)"
  Potency: "11 µM (active)"
